target-system: T1, human PD-L1 (hPD-L1) (human, UniProt Q9NZQ7 19-290)
T1 construct: Endogenous hPD-L1 on JIMT1 (JIMT-1) cells; also called programmed death-ligand 1; CD274
T1 sequence (Q9NZQ7 19-290 limits assumed): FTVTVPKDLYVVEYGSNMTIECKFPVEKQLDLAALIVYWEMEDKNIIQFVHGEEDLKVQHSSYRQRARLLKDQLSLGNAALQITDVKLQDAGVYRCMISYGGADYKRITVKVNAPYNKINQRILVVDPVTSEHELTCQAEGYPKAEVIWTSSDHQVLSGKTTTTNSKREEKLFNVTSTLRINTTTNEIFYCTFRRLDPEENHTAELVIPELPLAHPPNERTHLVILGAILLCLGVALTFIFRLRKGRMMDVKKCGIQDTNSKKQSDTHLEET
test-summary: flow cytometry on JIMT-1 cells expressing endogenous human PD-L1; anti-human IgG Fc secondary; geometric MFI
readout-label: binding result

INSERT INTO assay_data (binder, readout_label, meas_value) VALUES
  ('33 (antibody, V domains shown) VH: QVQLVQSGAEVKKPGASVKVSCKASGYTFTRHFIHWVRQAPGQGLEWMGWIDPNSGVTSSAQKFQGRVTMTRDTSTSTVYMELSSLRSEDTAVYYCARELSRWGFDYWGPGTMVTVSS VL: EIVMTQSPATLSVSPGERATLSCRASQTVSSNYLAWYQQKPGQAPRLLIYGASTRASGIPARFSGSGSGTEFTLTISSLQSEDFAVYYCQQYYTTPLTFGGGTKVEIK', 'binding result', 'binds'),
  ('19 (antibody, V domains shown) VH: QVQLVQSGAEVKKPGASVKVSCKASGYTFTSHYMHWVRQAPGQGLEWMGWMNPNSGNTGYAQKFQGRVTMTRDTSTSTVYMELSSLRSEDTAVYYCARERFLGGMDVWGQGTTVTVSS VL: DIQMTQSPSSLSASVGDRVTITCRASQSITGWLAWYQQKPGKAPKLLIYAASSLQSGVPSRFSGSGSGTDFTLTISSLQPEDFATYYCQQSYSTPYTFGQGTKVEIK', 'binding result', 'binds'),
  ('11 (antibody, V domains shown) VH: QVQLVQSGAEVKKPGASVKVSCKASGYTFTNYYIHWVRQAPGQGLEWLGWMNPNGDVAGYADSFQGRVTMTRDTSTSTVYMELSSLRSEDTAVYYCAIDSSGWMRNDAFDIWGQGTLVTVSS VL: DIQMTQSPSSLSASVGDRVTITCRASQGISQYLAWYQQKPGKAPKLLIYGASNLHSGVPSRFSGSGSGTDFTLTISSLQPEDFATYYCQQTFITPLTFGGGTKVEIK', 'binding result', 'binds'),
  ('70 (antibody, V domains shown) VH: QVQLVQSGAEVKKPGASVKVSCKASGYTFTDHYLHWVRQAPGQGLEWMGWINPNIGNTGYAQKFQGRVTMTRDTSTSTVYMELSSLRSEDTAVYYCAREPLQLGGFDYWGQGTLVTVSS VL: DIQMTQSPSSLSASVGDRVTITCRASESISSWLAWYQQKPGKAPKLLIYAASSLQSGVPSRFSGSGSGTDFTLTISSLQPEDFATYYCQQSYSTPLTFGQGTKLEIK', 'binding result', 'binds'),
  ('30 (antibody, V domains shown) VH: QVQLVQSGAEVKKPGASVKVSCKASGYPFSTYYMHWVRQAPGQGLEWMGWMNPHSADTGYAEKFQGRVTMTRDTSTSTVYMELSSLRSEDTAVYYCAREVFEGGMDVWGQGTTVTVSS VL: DIQMTQSPSSLSASVGDRVTITCRASQSVGSWVAWYQQKPGKAPKLLIYPASTLQSGVPSRFSGSGSGTDFTLTISSLQPEDFATYYCQQSYSTPLTFGGGTKVEIK', 'binding result', 'binds');
